# study_target: Protein kinase C delta type (Homo sapiens, UniProt Q05655)
# Sequence (Q05655 whole entry, the tested form may be a part): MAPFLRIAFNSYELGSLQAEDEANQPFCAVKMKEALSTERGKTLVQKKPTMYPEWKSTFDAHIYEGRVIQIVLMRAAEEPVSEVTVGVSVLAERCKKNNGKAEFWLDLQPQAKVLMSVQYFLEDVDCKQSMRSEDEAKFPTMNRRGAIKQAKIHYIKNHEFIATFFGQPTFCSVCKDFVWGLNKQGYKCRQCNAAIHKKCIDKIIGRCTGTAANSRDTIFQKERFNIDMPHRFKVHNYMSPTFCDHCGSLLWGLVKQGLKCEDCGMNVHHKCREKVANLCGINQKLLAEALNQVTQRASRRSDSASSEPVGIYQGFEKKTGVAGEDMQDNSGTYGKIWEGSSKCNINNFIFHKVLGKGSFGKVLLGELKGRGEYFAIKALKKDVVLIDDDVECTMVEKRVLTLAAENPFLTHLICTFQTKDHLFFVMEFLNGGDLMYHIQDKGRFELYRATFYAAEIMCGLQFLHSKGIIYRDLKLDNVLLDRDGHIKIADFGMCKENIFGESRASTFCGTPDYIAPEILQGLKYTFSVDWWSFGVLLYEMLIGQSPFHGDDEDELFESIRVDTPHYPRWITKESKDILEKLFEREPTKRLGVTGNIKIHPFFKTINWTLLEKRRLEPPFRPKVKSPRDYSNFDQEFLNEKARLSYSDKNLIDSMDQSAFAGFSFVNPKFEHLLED
# test_method_notes: Inhibition of [3H]-PDBu binding to PKCdelta C1B domain (unknown origin) by competitive binding assay
attribute_measured: pKi
Please note pKi is a logarithmic value: minus log10 of concentration in mol/L. Answer with that number alone.

[[record]]
line_notation = "CC(C)[C@@]12C[C@@H](C[C@@H](CCCCc3ccccc3)O1)OC(=O)C[C@H](CO)OC(=O)CCO2"
observed_value = 6.89


The record that follows has no pKi shown yet.
`CC1(C)CC[C@@H]2CC(=O)O[C@@H](CO)CC(=O)O[C@H](CCCCCCc3ccccc3)C[C@@H]1O2` tested on Protein kinase C delta type (Homo sapiens, UniProt Q05655) gave pKi: 7.77

---

System: UniProt P17252 | Read-out: pKi
Please keep in mind that pKi is minus log10 of the molar concentration; only the number is needed.

[[record]]
line_notation = "CC(C)[C@@]12C[C@@H](C[C@@H](CCCCc3ccccc3)O1)OC(=O)C[C@H](CO)OC(=O)CCO2"
attribute_measured = "pKi"
observed_value = 7.00


Next molecule, pKi to be filled in.
Form: molecule = `CC1(C)CC[C@@H]2CC(=O)O[C@@H](CO)CC(=O)O[C@H](CCCCCCc3ccccc3)C[C@@H]1O2` ; pKi = 7.06
